# target under test: sodium ion channel (Nav1.7) (Homo sapiens)
# Sequence (Q15858 whole entry): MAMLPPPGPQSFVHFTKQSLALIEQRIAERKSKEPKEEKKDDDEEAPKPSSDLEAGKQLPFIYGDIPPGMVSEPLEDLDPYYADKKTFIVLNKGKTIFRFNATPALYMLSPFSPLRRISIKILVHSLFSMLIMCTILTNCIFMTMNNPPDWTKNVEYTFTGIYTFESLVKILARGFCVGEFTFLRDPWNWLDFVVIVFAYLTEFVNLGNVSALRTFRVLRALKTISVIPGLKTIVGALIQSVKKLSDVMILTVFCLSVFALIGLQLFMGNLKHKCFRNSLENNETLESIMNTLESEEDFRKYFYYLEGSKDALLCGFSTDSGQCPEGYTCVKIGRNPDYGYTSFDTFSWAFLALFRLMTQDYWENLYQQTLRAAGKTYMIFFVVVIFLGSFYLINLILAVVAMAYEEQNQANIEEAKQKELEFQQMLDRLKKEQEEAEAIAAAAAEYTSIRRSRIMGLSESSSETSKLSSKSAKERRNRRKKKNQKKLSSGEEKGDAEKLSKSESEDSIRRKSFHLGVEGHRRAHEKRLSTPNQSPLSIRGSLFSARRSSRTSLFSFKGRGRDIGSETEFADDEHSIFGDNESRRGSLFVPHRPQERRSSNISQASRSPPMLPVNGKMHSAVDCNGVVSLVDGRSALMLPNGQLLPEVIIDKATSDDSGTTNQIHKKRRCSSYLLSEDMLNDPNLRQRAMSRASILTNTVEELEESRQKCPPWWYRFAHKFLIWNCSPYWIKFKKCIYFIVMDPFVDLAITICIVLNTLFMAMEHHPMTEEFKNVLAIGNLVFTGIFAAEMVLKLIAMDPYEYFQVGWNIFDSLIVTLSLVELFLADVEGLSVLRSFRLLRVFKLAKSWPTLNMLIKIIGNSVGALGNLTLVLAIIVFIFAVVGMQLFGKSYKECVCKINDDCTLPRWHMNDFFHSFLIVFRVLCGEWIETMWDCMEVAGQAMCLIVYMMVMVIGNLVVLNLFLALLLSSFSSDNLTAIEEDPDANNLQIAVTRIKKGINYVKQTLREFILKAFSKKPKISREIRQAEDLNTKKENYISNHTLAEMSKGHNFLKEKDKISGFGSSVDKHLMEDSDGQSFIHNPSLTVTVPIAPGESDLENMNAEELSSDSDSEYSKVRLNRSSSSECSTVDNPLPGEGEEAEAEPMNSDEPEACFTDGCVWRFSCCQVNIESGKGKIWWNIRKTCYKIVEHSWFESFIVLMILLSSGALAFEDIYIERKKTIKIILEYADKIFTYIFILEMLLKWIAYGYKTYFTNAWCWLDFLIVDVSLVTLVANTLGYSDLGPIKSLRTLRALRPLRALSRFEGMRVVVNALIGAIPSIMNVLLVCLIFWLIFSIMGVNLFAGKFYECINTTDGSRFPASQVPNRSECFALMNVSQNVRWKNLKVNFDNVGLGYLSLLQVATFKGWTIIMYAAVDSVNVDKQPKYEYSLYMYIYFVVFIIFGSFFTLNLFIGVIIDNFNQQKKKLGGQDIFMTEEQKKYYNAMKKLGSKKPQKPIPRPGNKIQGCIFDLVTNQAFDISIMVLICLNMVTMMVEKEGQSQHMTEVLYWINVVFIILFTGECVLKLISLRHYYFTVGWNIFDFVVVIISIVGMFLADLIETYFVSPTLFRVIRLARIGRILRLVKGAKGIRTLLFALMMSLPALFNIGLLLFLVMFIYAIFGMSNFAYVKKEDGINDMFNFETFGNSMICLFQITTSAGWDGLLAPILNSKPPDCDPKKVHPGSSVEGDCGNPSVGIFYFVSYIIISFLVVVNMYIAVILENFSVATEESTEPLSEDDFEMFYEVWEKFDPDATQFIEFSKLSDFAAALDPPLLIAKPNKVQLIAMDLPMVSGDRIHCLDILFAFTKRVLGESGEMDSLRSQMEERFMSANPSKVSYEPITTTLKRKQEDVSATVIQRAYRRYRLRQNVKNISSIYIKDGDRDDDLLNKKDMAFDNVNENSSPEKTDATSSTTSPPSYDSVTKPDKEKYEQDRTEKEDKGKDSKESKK
# test description: Blocking effect against sodium ion channel (Nav1.7), IonFlux16 auto patch clamp, hNav1.7 HEK293 cells
# measurement parameters: peak current after 50 seconds treatment, eight concentrations
pIC50: −log10 of the molar value.
test readout: pIC50

The measured pIC50 associated with `N#Cc1cc(S(=O)(=O)Nc2nccs2)ccc1Oc1cnc(-c2ccccc2)cc1-c1ccoc1` reads > 7.30

The measured pIC50 associated with `O=S(=O)(Nc1cscn1)c1cc(Cl)c(Oc2cnc(-c3cccnc3F)cc2-c2ccoc2)cc1F` reads < 7.00

The measured pIC50 associated with `N#Cc1cc(S(=O)(=O)Nc2nccs2)ccc1Oc1cnc(-c2cccc(C(F)(F)F)c2)cc1-c1ccoc1` reads < 7.00

The measured pIC50 associated with Cn1cc(-c2cc(-c3ccc(F)nc3)ncc2Oc2cc(F)c(S(=O)(=O)Nc3cscn3)cc2Cl)cn1 [Example 70, 2,2,2-trifluoroacetate] reads < 7.00

The measured pIC50 associated with O=S(=O)(Nc1nccs1)c1ccc(C(O)c2ccc(Cl)cc2-c2ccncc2)cc1 (stereo not shown) reads < 7.00

The measured pIC50 associated with `N#Cc1cc(S(=O)(=O)Nc2ncns2)ccc1Oc1cnc(-c2ccccc2)cc1-c1ccoc1` reads > 7.30

The measured pIC50 associated with O=S(=O)(Nc1nccs1)c1ccc(C(O)c2ccc(-c3ccc(F)cc3)cc2-c2ccoc2)cc1 (stereo not shown) reads < 7.00

Cited source for all entries: patent US9376429B2
